Tested on: MDA-MB-231
protocolDetails: In vitro cytotoxicity MTT assay
Assay type: cell-based, human
reportedConditions: Homo sapiens, MDA-MB-231, 72 h, IC50 ± SD
Kindly state IC50 for each of the entries shown.
One number for each entry, in µM.

Some molecules with recorded IC50:
1) Nc1cc(F)ccc1NC(=O)c1ccc(NC(=O)C/C=C/c2cccnc2)cc1 [GNTbm-39]: 2.93
2) Nc1cc(C(F)(F)F)ccc1NC(=O)c1ccc(NC(=O)C/C=C/c2cccnc2)cc1 [GNTbm-33]: 1.62
3) Nc1cc(F)ccc1NC(=O)c1ccc(NC(=O)CCCc2cccnc2)cc1 [GNTbm-37]: 8.07

# next molecule below
Dear colleague, I am looking for the recorded IC50 of the following molecule: Nc1ccccc1NC(=O)c1ccc(CNC(=O)OCc2cccnc2)cc1 [Entinostat, reference compound]
13.2

###

Measured IC50 on HDAC3 (Homo sapiens (Human)) follows.
Sequence (O15379 whole entry): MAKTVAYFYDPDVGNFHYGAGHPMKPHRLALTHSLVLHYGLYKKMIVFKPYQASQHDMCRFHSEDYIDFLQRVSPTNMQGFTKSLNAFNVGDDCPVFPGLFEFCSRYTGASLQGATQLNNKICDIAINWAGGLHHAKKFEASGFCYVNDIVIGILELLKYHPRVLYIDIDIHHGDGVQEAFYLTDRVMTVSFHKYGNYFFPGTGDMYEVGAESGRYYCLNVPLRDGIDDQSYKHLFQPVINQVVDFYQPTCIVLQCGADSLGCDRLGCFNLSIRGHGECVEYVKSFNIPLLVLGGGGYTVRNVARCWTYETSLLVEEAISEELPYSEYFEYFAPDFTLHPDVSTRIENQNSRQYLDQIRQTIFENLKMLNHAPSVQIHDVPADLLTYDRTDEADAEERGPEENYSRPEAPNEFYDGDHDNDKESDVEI
Sequence (Q9Y618 395-489 partner): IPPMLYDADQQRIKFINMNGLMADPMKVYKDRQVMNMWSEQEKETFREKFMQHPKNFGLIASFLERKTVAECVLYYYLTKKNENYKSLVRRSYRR
Answers are plain numbers, in nM.

Kindly give each listed record's IC50.
1. Nc1ccccc1NC(=O)c1ccc(NC(=O)C/C=C/c2cccnc2)cc1
2. Cc1ccc(/C=C/CC(=O)Nc2ccc(C(=O)Nc3ccc(F)cc3N)cc2)cn1
3. Nc1cc(F)ccc1NC(=O)c1ccc(NC(=O)C/C=C/c2cccnc2)cc1

1. 1200
2. 670
3. 890
